# system: full-length beta-Catenin (Uniprot ID P35222) (Homo sapiens (Human)) (UniProt P35222)
# Sequence (P35222 2-781 limits assumed): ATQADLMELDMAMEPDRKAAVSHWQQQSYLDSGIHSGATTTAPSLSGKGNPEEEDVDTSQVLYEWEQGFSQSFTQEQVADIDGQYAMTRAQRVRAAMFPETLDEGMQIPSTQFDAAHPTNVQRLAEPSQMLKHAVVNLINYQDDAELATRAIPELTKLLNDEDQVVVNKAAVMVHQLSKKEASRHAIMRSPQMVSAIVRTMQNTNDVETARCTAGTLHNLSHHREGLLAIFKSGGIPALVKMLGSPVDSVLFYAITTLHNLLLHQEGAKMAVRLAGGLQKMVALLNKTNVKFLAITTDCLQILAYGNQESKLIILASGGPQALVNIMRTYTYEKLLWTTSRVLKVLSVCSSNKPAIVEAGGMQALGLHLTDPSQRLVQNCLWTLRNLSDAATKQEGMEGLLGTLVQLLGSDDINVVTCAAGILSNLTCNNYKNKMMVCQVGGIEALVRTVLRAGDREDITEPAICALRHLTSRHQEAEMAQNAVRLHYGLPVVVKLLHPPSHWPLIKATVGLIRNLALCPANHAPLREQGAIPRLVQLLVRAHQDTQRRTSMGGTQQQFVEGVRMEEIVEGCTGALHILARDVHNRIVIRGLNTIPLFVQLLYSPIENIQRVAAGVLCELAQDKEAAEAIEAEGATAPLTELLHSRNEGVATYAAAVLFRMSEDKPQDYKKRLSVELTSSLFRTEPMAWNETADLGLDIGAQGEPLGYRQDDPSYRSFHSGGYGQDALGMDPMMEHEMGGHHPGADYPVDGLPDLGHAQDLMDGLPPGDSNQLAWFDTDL
# test: FP competition vs 5FAM-TCF4(10-53), full-length beta-catenin
pIC50: −log10 of the molar value. Starred links: 1 amine or outer side, 2 acyl side, 3 side chain; linkers in the order of their positions; H or OH if unused. Positions of bridges follow the written chain, without caps; N, C: chain ends. Non-standard residues stand in square brackets, D forms with d. Primed or numbered codes have the meaning given here. PyrS2 = (S)-3-amino-1-((pent-4-en-1-yloxy)carbonyl)pyrrolidine-3-carboxylic acid, C=CCCCOC(=O)N1CC[C@@](N[*:1])(C(=O)[*:2])C1; B5(12) = 2-amino-2-(pent-4-en-1-yl)hept-6-enoic acid (two olefin side chains), C=CCCCC(CCCC=C)(N[*:1])C(=O)[*:2]; Bta = N[C@@H](Cc1csc2ccccc12)C(=O)O; αAllylPro = C=CC[C@@]1(C(=O)O)CCCN1; tBuAla = CC(C)(C)C[C@H](N)C(=O)O; 3Thi = N[C@@H](Cc1ccsc1)C(=O)O; Cit = NC(=O)NCCC[C@H](N)C(=O)O
This listing pairs binders with measured pIC50.

binder	pIC50
Ac-[αAllylPro]D[tBuAla][B5(12)]DLAAFN[PyrS2][3Thi][Bta]-NH2 (staple 1-4, 4-11) [I-862]	6.91
Ac-[αAllylPro]D[tBuAla][B5(12)]D[Cit]AAFN[PyrS2][3Thi][Bta]-NH2 (staple 1-4, 4-11) [I-861]	7.40
Ac-[αAllylPro]D[tBuAla][B5(12)]DTAAFN[PyrS2][3Thi][Bta]-NH2 (staple 1-4, 4-11; also: later eluting HPLC peak (staple isomer)) [I-860]	7.21
Ac-[αAllylPro]D[tBuAla][B5(12)]DQAAFN[PyrS2][3Thi][Bta]-NH2 (staple 1-4, 4-11) [I-858]	7.47
Ac-[αAllylPro]D[tBuAla][B5(12)]DTAAFN[PyrS2][3Thi][Bta]-NH2 (staple 1-4, 4-11; also: earlier eluting HPLC peak (staple isomer)) [I-859]	7.44
